Where these numbers come from: patent US11447486B2

# System: Rat whole blood (RWB)
# assay info: LTB4 secretion assay in RWB (rat whole blood)
# Type: cell-based
# cond: Rattus norvegicus
Kindly supply the reported EC50 values for the records listed here.

Example entries begin here.
smi=Nc1ccc2[nH]c(NCCc3ccc(Oc4ccc(Cl)cc4)cc3)nc2c1 experimental_system="Rat whole blood (RWB)" result="< 10 µM"
smi=Nc1ccc2[nH]c(NCc3ccc(Oc4ccc(Cl)nc4)cc3)nc2c1 experimental_system="Rat whole blood (RWB)" result="< 10 µM"
smi=Cc1nnc(Nc2ccc3nc(NCc4ccc(Oc5ncc(Cl)cn5)cc4)n(C)c3c2)o1 experimental_system="Rat whole blood (RWB)" result="< 10 µM"
smi=Nc1ccc2c(c1)nc(N1CCC1)n2CCOc1ccc(OC(F)(F)F)cc1 experimental_system="Rat whole blood (RWB)" result="> 20 µM"

// lookup EC50 for `Nc1ccc2nc(NCc3ccc(Oc4ncccn4)cc3)[nH]c2c1`
> 20 µM

* * *

# Tested on: Rat whole blood (RWB)
# assay info: LTB4 secretion assay in RWB (rat whole blood)
# Type: cell-based
# cond: Rattus norvegicus
pEC50: −log10 of the molar value.
test readout: pEC50

molecule=Cn1c(NCc2ccc(Oc3ncc(Cl)cn3)cc2)nc2ccc(N)cc21 result="> 5.00"
molecule=Nc1ccc2[nH]c(NCc3ccc(Oc4ccc(OC(F)(F)F)cc4)cc3)nc2c1 result="> 5.00"
molecule=Nc1ccc2[nH]c(NCc3ccc(Oc4ccc(Cl)cc4Cl)cc3)nc2c1 result="4.70 to 5.00"

Consider the following items and state reported pEC50 for each.
1. CCn1c(NCc2ccc(Oc3ncc(C(F)(F)F)cn3)cc2F)nc2ccc(NC3COC3)cc21
2. Nc1ccc2[nH]c(NCc3ccc(Oc4ccc(F)c(F)c4)cc3)nc2c1

["> 5.00", "> 5.00"]

Please supply pEC50 for each of the following items, keeping them in order.
1. Cn1c(NCc2ccc(Oc3ccc(Cl)cn3)cc2)nc2c(F)cc(NC3COC3)cc21
2. Cn1nc(C(F)F)cc1Nc1ccc2nc(NCc3ccc(Oc4ncc(Cl)cn4)cc3)n(C)c2c1
3. Cc1cc(Nc2ccc3nc(NCc4ccc(Oc5ncc(Cl)cn5)cc4)n(CCC(F)(F)F)c3c2)n[nH]1
4. CC(Nc1ccc2nc(N(C)C)[nH]c2c1)c1ccc(Oc2ccc(OC(F)(F)F)cc2)nc1 (stereo not drawn)
5. Cc1csc(Nc2ccc3nc(NCc4ccc(Oc5ncc(Cl)cn5)cc4)n(C)c3c2)n1
6. Nc1ccc2nc(NCCO)n(Cc3ccc(Oc4ccc(Cl)cc4)cc3)c2c1
7. Nc1ccc2[nH]c(NCc3ccc(Oc4ccc(Cl)cc4)cc3)nc2c1
8. Cn1c(NCc2ccc(Oc3ncc(Cl)cc3F)cc2)nc2ccc(NC3COC3)cc21

1. > 5.00
2. > 5.00
3. > 5.00
4. < 4.70
5. > 5.00
6. > 5.00
7. > 5.00
8. > 5.00

Parameter requested: pEC50. Apply to each item below.
1. CN(C)c1nc2cc(N)ccc2n1CCOc1ccc(OC(F)(F)F)cc1
2. Nc1ccc2[nH]c(NCc3ccc(Oc4ccccc4)cc3)nc2c1
3. Cn1c(NCc2ccc(Oc3ccc(Cl)cc3)cn2)nc2ccc(NC3COC3)cc21
4. Cn1nc(Nc2ccc3nc(NCc4ccc(Oc5ncc(Cl)cn5)cc4)n(C)c3c2)cc1C(F)(F)F

1: < 4.70; 2: > 5.00; 3: < 4.70; 4: > 5.00

For each entry beneath this line, provide reported pEC50.
1. Cn1c(NCc2ccc(Oc3ncc(Cl)cn3)cc2)nc2c(F)cc(NC3COC3)cc21
2. CC(C)(C)Oc1ccc(CNc2nc3ccc(N)cc3[nH]2)cc1
3. Cn1c(NCc2cc(Cl)c(Oc3ncc(Cl)cn3)cc2Cl)nc2ccc(NC3COC3)cc21
4. Nc1ccc2[nH]c(NCc3ccc(Oc4cccc(Cl)c4)cc3)nc2c1

> 5.00
< 4.70
> 5.00
> 5.00

* * *

# experimental system: human 5-LOX (Homo sapiens)
# Construct: purchased Cayman 60402; host or cells: insect cells (lysate)
# assay info: 5-LOX enzyme activity, fluorescence method (5-HPETE, H2DCFDA)
# Type: biochemical
# cond: read-out: 5-LO (IC50)
# Experimental: The activity of compounds against 5-LOX were determined by measuring LTB4 (leukotriene B4) levels and/or by a fluorescence method. Both approaches are outlined in more detail below; The compound, in a dose response manner(0.5 nM to 10 uM), and enzyme mixture was pre-incubated for 5 minutes, and the enzymatic reaction was initiated by addition of ATP and arachidonic acid to a final concentration of 100 uM and 3 uM, respectively. […] All steps were carried out at room temperature.
Exercise: for every item that follows, state its recorded IC50.

smi=Cn1c(NCc2ccc(Oc3ncc(Cl)cn3)c(Cl)c2)nc2ccc(NC3COC3)cc21 result="< 1000 nM"
smi=Cn1c(NCc2ccc(Oc3ncc(Cl)cn3)cc2)nc2ccc(Nc3nc(C(F)(F)F)cs3)cc21 result="1000 to 10000 nM"
smi=Nc1ccc2c(c1)nc(N)n2Cc1ccc(Oc2ccc(Cl)cn2)cc1 result="< 1000 nM"

We now examine a further compound.
Test system human 5-LOX (Homo sapiens); read-out IC50; what value for `CCOC(=O)CNc1nc2ccc(N)cc2n1Cc1ccc(Oc2ccc(Cl)cc2)cc1` ?
< 1000 nM

* * *

# Test system: Rat whole blood (RWB)
# assay info: LTB4 secretion assay in RWB (rat whole blood)
# Assay type: cell-based
# cond: Rattus norvegicus
test readout: EC50

compound=CC(C)(Nc1nc2cc(N)ccc2[nH]1)c1ccc(Oc2ccc(Cl)cc2)cc1 experimental_system="Rat whole blood (RWB)" test_readout=EC50 result="> 20 µM"
compound=Cn1c(NCc2ccc(Oc3ccc(OC(F)(F)F)cn3)cc2)nc2ccc(NC3COC3)cc21 experimental_system="Rat whole blood (RWB)" test_readout=EC50 result="< 10 µM"
compound=Nc1ccc2[nH]c(NCc3ccc(N4CCC(COc5ccc(Cl)cc5)CC4)cc3)nc2c1 experimental_system="Rat whole blood (RWB)" test_readout=EC50 result="10 to 20 µM"

Please state EC50 for every compound in the list that follows.
1. Nc1ccc2[nH]c(NCc3ccc(N4CCC(Oc5ccc(Cl)cc5)C4)cc3)nc2c1 (centres unmarked)
2. CCn1c(NCc2ccc(Oc3ncc(C(F)(F)F)cn3)cc2F)nc2ccc(Nc3cc(C(F)(F)F)n(C)n3)cc21
3. Nc1ccc2nc(N)n(CCc3ccc(Oc4ccc(Cl)cc4)cc3)c2c1
4. Nc1ccc2[nH]c(NCc3ccc(S(=O)(=O)c4ccc(Cl)cc4)cc3)nc2c1
5. Nc1ccc2c(c1)nc(N)n2Cc1ccc(Oc2ccc(Cl)cn2)cc1
6. FC(F)(F)Oc1ccc(OC2CCN(c3ccc4nc(N5CCCC5)[nH]c4c3)C2)cc1 (centres unmarked)
7. COCCNc1nc2ccc(N3CCC(Oc4ccc(OC(F)(F)F)cc4)C3)cc2[nH]1 (centres unmarked)
8. O=C(NC1CC1)c1c[nH]nc1Nc1ccc2[nH]c(NCc3ccc(Oc4ccc(Cl)cc4)cc3)nc2c1

1: > 20 µM; 2: < 10 µM; 3: > 20 µM; 4: > 20 µM; 5: < 10 µM; 6: > 20 µM; 7: > 20 µM; 8: < 10 µM

* * *

Target chain: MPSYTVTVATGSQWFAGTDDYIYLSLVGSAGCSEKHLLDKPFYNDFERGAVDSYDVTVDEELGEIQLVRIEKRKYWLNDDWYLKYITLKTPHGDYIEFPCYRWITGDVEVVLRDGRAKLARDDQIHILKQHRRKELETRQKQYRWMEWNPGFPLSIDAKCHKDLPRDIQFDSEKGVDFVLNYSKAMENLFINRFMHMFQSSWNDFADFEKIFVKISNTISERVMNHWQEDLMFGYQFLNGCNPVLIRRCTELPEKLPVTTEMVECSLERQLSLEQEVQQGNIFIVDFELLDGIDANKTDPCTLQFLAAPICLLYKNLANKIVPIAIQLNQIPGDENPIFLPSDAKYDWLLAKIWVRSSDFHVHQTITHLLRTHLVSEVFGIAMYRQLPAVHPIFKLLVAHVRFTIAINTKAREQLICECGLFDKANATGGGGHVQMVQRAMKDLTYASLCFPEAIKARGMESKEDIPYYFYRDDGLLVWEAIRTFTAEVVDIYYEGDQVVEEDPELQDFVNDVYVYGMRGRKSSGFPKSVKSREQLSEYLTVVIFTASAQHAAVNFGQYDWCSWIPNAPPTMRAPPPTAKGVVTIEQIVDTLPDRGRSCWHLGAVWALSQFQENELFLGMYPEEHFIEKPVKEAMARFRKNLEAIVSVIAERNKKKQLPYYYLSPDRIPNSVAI
pIC50: −log10 of the molar value.
test readout: pIC50

Looking for the measured pIC50 of `Nc1ccc2nc(N)n(CCOc3ccc(OC(F)(F)F)cc3)c2c1` , can you help?
4.70 to 6.00

* * *

# experimental system: human 5-LOX (Homo sapiens)
# Construct: purchased Cayman 60402; host or cells: insect cells (lysate)
# assay info: 5-LOX enzyme activity, fluorescence method (5-HPETE, H2DCFDA)
# Assay type: biochemical
# cond: read-out: 5-LO (IC50)
Hi there, I'd appreciate the recorded IC50 for every entry that follows.

smi=CC(C)(C)Nc1nc2ccc(N)cc2n1CCOc1ccc(OC(F)(F)F)cc1 result="< 1000 nM"
smi=Cn1ccc(Nc2ccc3nc(NCc4ccc(Oc5ncc(Cl)cn5)cc4)n(C)c3c2)n1 result="< 1000 nM"
smi=Cn1c(NCc2ccc(Oc3ccc(Cl)cn3)cc2)nc2ccc(N)cc21 result="< 1000 nM"

Provide each entry's IC50 from the list below.
1. Nc1ccc2nc(N3CCC(F)(F)C3)n(CCOc3ccc(OC(F)(F)F)cc3)c2c1
2. Cn1c(NCc2ccc(C(=O)Nc3ccc(Cl)cn3)cc2)nc2ccc(N)cc21
3. Nc1ccc2nc(NCc3coc(-c4ccc(Cl)cc4)n3)[nH]c2c1
4. Cn1c(NCc2ccc(Oc3ncc(Cl)cn3)cc2)nc2ccc(Nc3n[nH]cc3C(N)=O)cc21

< 1000 nM
< 1000 nM
< 1000 nM
1000 to 10000 nM

For `Cc1nnc(Nc2ccc3nc(NCc4ccc(Oc5ncc(Cl)cn5)cc4)n(C)c3c2)o1` , what is its reported IC50?
> 10000 nM
